read-out: Cytochrome P450 (CYP24A1), CYP24A1 (gene 1591); test: LTEA_HepaRG_CYP24A1: Life Technologies and Expression Analysis (LTEA) Assay for Cytochrome P450 (CYP24A1) using HepaRG (AID 2283478); details: mRNA level, 48 h; actives raise or lower the signal
Activity calls are given as the source filed them. Rule for the calls: active = hit-call score of the fitted dose curve at least 0.9, where 1 is the maximum; inactive = score below 0.9.
Outcomes you can answer with include only these: 1 (active), 0 (inactive)

Past entries and their recorded results:
OC(c1ccc(Cl)cc1)(c1ccc(Cl)cc1)C(Cl)(Cl)Cl	0
COP(=O)(OC)O/C(C)=C/C(=O)N(C)C	0
CN/C(=N\[N+](=O)[O-])NCc1cnc(Cl)s1	0
COCC(C)N(C(=O)CCl)c1c(C)csc1C (centres undefined)	0
CC(C)Nc1nc(Cl)nc(NC(C)C)n1	0

Task item: Check the results log: what was the call for `O=C(O)c1c(Cl)ccc2cc(Cl)cnc12` ?
Reply: 0

Task item: Check the results log: what was the call for `Nc1c(Cl)c(Cl)nc(C(=O)O)c1Cl` ?
Reply: 0

Task item: Check the results log: what was the call for `CCCCOCN(C(=O)CCl)c1c(CC)cccc1CC` ?
Reply: 0

Task item: Check the results log: what was the call for CC1(C)CCC(=Cc2ccc(Cl)cc2)C1(O)Cn1cncn1 (centres undefined) ?
Reply: 0

Task item: Check the results log: what was the call for CC(C)(C)C(=O)C(Oc1ccc(Cl)cc1)n1cncn1 (centres undefined) ?
Reply: 0

Task item: Check the results log: what was the call for `Cc1nc(N(C)C)nc(OC(=O)N(C)C)c1C` ?
Reply: 1

Task item: Check the results log: what was the call for `COP(=S)(OC)SCn1nnc2ccccc2c1=O` ?
Reply: 0

Task item: Check the results log: what was the call for `CCOc1nc(C(Cl)(Cl)Cl)ns1` ?
Reply: 1

Task item: Check the results log: what was the call for Cc1cnc(C2=NC(C)(C(C)C)C(=O)N2)c(C(=O)O)c1 (centres undefined) ?
Reply: 0

Task item: Check the results log: what was the call for `O=C(Nc1ccccc1-c1ccc(Cl)cc1)c1cccnc1Cl` ?
Reply: 0

Task item: Check the results log: what was the call for `CSC(=O)c1c(C(F)F)nc(C(F)(F)F)c(C(=O)SC)c1CC(C)C` ?
Reply: 0

Task item: Check the results log: what was the call for `COc1cc(OC)nc(NC(=O)NS(=O)(=O)c2ncccc2OCC(F)(F)F)n1` ?
Reply: 0

Task item: Check the results log: what was the call for `Cn1c(-c2ccccc2)cc(-c2ccccc2)[n+]1C` ?
Reply: 0

Task item: Check the results log: what was the call for CCCCC(C#N)(Cn1cncn1)c1ccc(Cl)cc1 (centres undefined) ?
Reply: 0

Task item: Check the results log: what was the call for `COC(=O)c1c(C(F)F)nc(C(F)(F)F)c(C2=NCCS2)c1CC(C)C` ?
Reply: 0

Task item: Check the results log: what was the call for `CNC(=O)N(C)c1nnc(C(C)(C)C)s1` ?
Reply: 0

Task item: Check the results log: what was the call for CCNP(=S)(OC)O/C(C)=C/C(=O)OC(C)C (centres undefined) ?
Reply: 0

Task item: Check the results log: what was the call for CC(C)C1(C)N=C(c2ncccc2C(=O)O)NC1=O (centres undefined) ?
Reply: 0

---

read-out: matrix metalloproteinase-3 (MMP3), MMP3 (gene 4314); assay: LTEA_HepaRG_MMP3: Life Technologies and Expression Analysis (LTEA) Assay for matrix metalloproteinase-3 (MMP3) using HepaRG (AID 2283519); conditions: mRNA level, 48 h; actives raise or lower the signal
Activity calls are given as the source filed them. The calls were made as follows: active = hit-call score of the fitted dose curve at least 0.9, where 1 is the maximum; inactive = score below 0.9.
Outcomes you can answer with include only these: active, inactive

Past entries and their recorded results:
COC(=O)c1c(C(F)F)nc(C(F)(F)F)c(C2=NCCS2)c1CC(C)C	inactive
O=P(O)(O)CCCl	inactive
COC(=O)N(C(=O)N1CO[C@@]2(C(=O)OC)Cc3cc(Cl)ccc3C2=N1)c1ccc(OC(F)(F)F)cc1	inactive
COP(=O)(OC)O/C(C)=C/C(=O)N(C)C	inactive
CCCCC(O)(Cn1cncn1)c1ccc(Cl)cc1Cl (configuration not stated)	active

Task item: Check the results log: what was the call for `CC(C)N1C(=O)N(c2ccccc2)CSC1=NC(C)(C)C` ?
Reply: active

Task item: Check the results log: what was the call for `Cc1cc(C)nc(Nc2ccccc2)n1` ?
Reply: inactive

Task item: Check the results log: what was the call for `C=CCOC(=O)C(C)(C)OC(=O)c1cc(-n2c(=O)cc(C(F)(F)F)n(C)c2=O)ccc1Cl` ?
Reply: inactive

Task item: Check the results log: what was the call for CCCC(=NOCC)C1=C(O)CC(CC(C)SCC)CC1=O (configuration not stated) ?
Reply: inactive

Task item: Check the results log: what was the call for `CC(C)Nc1nc(Cl)nc(NC(C)C)n1` ?
Reply: inactive

Task item: Check the results log: what was the call for `Clc1nc(Cl)nc(Nc2ccccc2Cl)n1` ?
Reply: inactive

Task item: Check the results log: what was the call for `CCOc1nc(C(Cl)(Cl)Cl)ns1` ?
Reply: active

---

Read-out: UDP glucuronosyltransferase (UGT1A1), UGT1A1 (gene 54658)
Experiment: LTEA_HepaRG_UGT1A1: Life Technologies and Expression Analysis (LTEA) Assay for UDP glucuronosyltransferase (UGT1A1) using HepaRG (AID 2283538)
Details: mRNA level, 48 h; actives raise or lower the signal
Description: LTEA_HepaRG is a cell based, multiplexed-readout assay that uses HepaRG, a human liver cell line, with measurements taken at 48 hours after chemical dosing on a 96-well plate.LTEA_HepaRG_UGT1A1 is one of 102 assay component(s) measured in the LTEA HepaRG cell culture assay. It is a marker of Steatosis/NR mediated metabolism.Data from the assay component LTEA_HepaRG_UGT1A1 was analyzed into 1 endpoint. […]
Activity calls are given as the source filed them. The calls were made as follows: active = hit-call score of the fitted dose curve at least 0.9, where 1 is the maximum; inactive = score below 0.9.
Outcomes you can answer with include only these: active, inactive

CCCCOCN(C(=O)CCl)c1c(CC)cccc1CC	active

Task item: Check the results log: what was the call for `COc1ccc(-c2ccccc2)cc1NNC(=O)OC(C)C` ?
Reply: inactive

Task item: Check the results log: what was the call for `CCOc1nc(F)cc2nc(S(=O)(=O)Nc3c(Cl)cccc3Cl)nn12` ?
Reply: inactive

---

test: Tanguay_ZF_120hpf_SNOU_legacy: (Legacy) Oregon State University Tanguay Lab 120 Hour Post-fertilization zebrafish Assay for Snout Malformation (AID 2283637)
Records with an inconclusive call do not appear. Active and inactive are the calls of the source. The calls were made as follows: active = hit-call score of the fitted dose curve at least 0.9, where 1 is the maximum; inconclusive = response in the unintended direction; inactive = score below 0.9.
Outcomes you can answer with include only these: YES (active), NO (inactive)

Past entries and their recorded results:
C=CCOC(=O)C(C)(C)OC(=O)c1cc(-n2c(=O)cc(C(F)(F)F)n(C)c2=O)ccc1Cl	NO
O=C(O)c1c(Cl)ccc2cc(Cl)cnc12	NO
CC(C)(C)C(=O)C(Oc1ccc(Cl)cc1)n1cncn1 (stereo unspecified)	YES

Task item: Check the results log: what was the call for `CC(C)N1C(=O)N(c2ccccc2)CSC1=NC(C)(C)C` ?
Reply: NO

Task item: Check the results log: what was the call for COCc1cnc(C2=NC(C)(C(C)C)C(=O)N2)c(C(=O)O)c1 (stereo unspecified) ?
Reply: NO

Task item: Check the results log: what was the call for `CCSC(=O)N1CCCCCC1` ?
Reply: NO

---

read-out: Interferon-gamma inducible Protein 10 (IP10), CXCL10 (gene 3627); assay: BSK_BE3C_IP10: BioMAP Diversity Plus: BE3C Assay for Interferon-gamma inducible Protein 10 (IP10) Biomarker Activity (AID 2283034); conditions: primary human bronchial epithelial cells; actives raise or lower the signal
The source made the active and inactive calls. The calls were made as follows: active = hit-call score of the fitted dose curve at least 0.9, where 1 is the maximum; inactive = score below 0.9.
Outcomes you can answer with include only these: true (1) (active), false (0) (inactive)

CC1(C)CCC(=Cc2ccc(Cl)cc2)C1(O)Cn1cncn1 (stereo unspecified)	false (0)

Task item: Check the results log: what was the call for `CNC(=O)Oc1cccc2ccccc12` ?
Reply: false (0)

Task item: Check the results log: what was the call for `CS(=O)(=O)c1cc(C(F)(F)F)ccc1C(=O)c1cnoc1C1CC1` ?
Reply: true (1)

Task item: Check the results log: what was the call for O=C1C2CC=CCC2C(=O)N1SC(Cl)(Cl)Cl (stereo unspecified) ?
Reply: true (1)

Task item: Check the results log: what was the call for `COc1cc(OC)nc(NC(=O)NS(=O)(=O)c2ncccc2OCC(F)(F)F)n1` ?
Reply: false (0)

Task item: Check the results log: what was the call for `N#Cc1c(Cl)cccc1Cl` ?
Reply: false (0)

Task item: Check the results log: what was the call for `OC(c1ccc(Cl)cc1)(c1ccc(Cl)cc1)C(Cl)(Cl)Cl` ?
Reply: true (1)

Task item: Check the results log: what was the call for `CCOP(=O)(OCC)Oc1nc(Cl)c(Cl)cc1Cl` ?
Reply: true (1)

Task item: Check the results log: what was the call for CC(C)C1(C)N=C(c2ncccc2C(=O)O)NC1=O (stereo unspecified) ?
Reply: false (0)

Task item: Check the results log: what was the call for `CN/C(=N\[N+](=O)[O-])NCc1cnc(Cl)s1` ?
Reply: false (0)

Task item: Check the results log: what was the call for `COc1cc(Cl)c(OC)cc1Cl` ?
Reply: false (0)
